The values you see were collected from PubChem BioAssay AID2060619.

system: 323965-272-R-J2-PDC complex spheroid viability; experiment: Anticancer human tumor 323965-272-R-J2-PDC patient-derived pancreatic carcinoma cell line growth inhibition [CLK]; conditions: second compound 1 µM; first compound 0.0316 µM; stronger effect = lower value;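 further: spheroids exposed to agents for seven days before readout; percent of DMSO vehicle control wells so 100% = untreated growth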

compound	viability, T/C / %
C#Cc1c(F)ccc2cc(O)cc(-c3ncc4c(N5CC6CCC(C5)N6)nc(OCC56CCCN5CC(F)C6)nc4c3F)c12 (stereo not given) + CN1CCN(c2cc(C(=O)Nc3cc4cc(-c5cnn(C)c5)ccc4cn3)ccn2)CC1	3.55
CC1COCCN1c1cc(C2(S(C)(=N)=O)CC2)nc(-c2ccnc3[nH]ccc23)n1 (stereo not given) + CNC(=O)c1ccc(Nc2nc(OC3CCCC3)c3c(-c4ccc5nc(C)oc5c4)c[nH]c3n2)c(OC)c1	43.4
C=CC(=O)N1CCN(c2nc(=O)n(-c3c(C)ccnc3C(C)C)c3nc(-c4c(O)cccc4F)c(F)cc23)C(C)C1 (stereo not given) + CNC(=O)c1ccc(Nc2nc(OC3CCCC3)c3c(-c4ccc5nc(C)oc5c4)c[nH]c3n2)c(OC)c1	28.3
COC1C=CCC(C)C(C)S(=O)(=O)NC(=O)c2ccc3c(c2)N(CC2CCC21)CC1(CCCc2cc(Cl)ccc21)CO3 (stereo not given) + CNC(=O)c1ccc(Nc2nc(OC3CCCC3)c3c(-c4ccc5nc(C)oc5c4)c[nH]c3n2)c(OC)c1	47.6
C#Cc1c(F)ccc2cc(O)cc(-c3ncc4c(N5CC6CCC(C5)N6)nc(OCC56CCCN5CC(F)C6)nc4c3F)c12 (stereo not given) + CNC(=O)c1ccc(Nc2nc(OC3CCCC3)c3c(-c4ccc5nc(C)oc5c4)c[nH]c3n2)c(OC)c1	43.2
